- SYSTEM_UNDER_TEST: KRas-mediated phosphorylation of ERK in H358 cells (Homo sapiens, UniProt P01116, G12C)
- Construct: pERK HTRF read-out
- Sequence (P01116 1-188 isoform P01116-2 G12C): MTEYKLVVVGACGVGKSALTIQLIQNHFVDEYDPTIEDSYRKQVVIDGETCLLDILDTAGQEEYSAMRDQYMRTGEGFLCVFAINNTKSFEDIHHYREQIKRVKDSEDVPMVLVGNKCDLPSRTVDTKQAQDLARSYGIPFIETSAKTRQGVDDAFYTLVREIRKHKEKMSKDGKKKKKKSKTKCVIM
- METHOD: Inhibition of KRas-mediated phosphorylation of ERK (HTRF), H358 cells
- Type: cell-based
- TEST_CONTEXT: HTRF pERK, 3 h incubation
Exam item: assign condition met to entries whose IC50 is below 900 nM and condition not met to entries at or above 900 nM. Note that a value of exactly 900 nM receives condition not met.

query: Strictly below 900 nM: is that where IC50 of CCc1c(F)ccc2cc(O)cc(-c3ncc4c(N5CC[C@H]6[C@@H](C5)[C@H]6C(=O)N(C)C(C)=O)nc(OC[C@@]56CCCN5C[C@H](F)C6)nc4c3F)c12 sits?
result: condition not met

query: Quick check: does N#Cc1c(N)sc2c(F)ccc(-c3c(C(F)(F)F)cc4c(N5CCC(C(=O)Oc6ccccc6)CC5)nc(OC[C@@]56CCCN5C[C@H](F)C6)nc4c3F)c12 have IC50 under 900 nM?
result: condition met

query: Quick check: does N#Cc1c(N)sc2c(F)ccc(-c3c(Cl)cc4c(N5CCN(S(=O)(=O)n6nccn6)CC5)nc(OC[C@@]56CCCN5C[C@H](F)C6)nc4c3F)c12 have IC50 under 900 nM?
result: condition not met

query: Quick check: IC50 of Cc1ccn(C(=O)CCCNc2cc(O[C@@H](C)[C@@H]3CCCN3C)nc(-c3noc([C@]4(C)CCCc5sc(N)c(C#N)c54)n3)n2)n1 under 900 nM?
result: condition met

query: Please indicate whether the reported IC50 of CCc1c(F)ccc2cc(O)cc(-c3ncc4c(N5CCN(C(=O)n6ccnc6)CC5)nc(OC[C@@]56CCCN5C[C@H](F)C6)nc4c3F)c12 is strictly below 900 nM.
result: condition met

query: Confirm or reject: IC50 of CCc1c(F)ccc2cc(O)cc(-c3ncc4c(N5CC(CC(=O)N(C)C(C)=O)C5)nc(OC[C@@]56CCCN5C[C@H](F)C6)nc4c3F)c12 lies strictly below 900 nM
result: condition not met

query: Strictly below 900 nM in IC50? CCc1c(F)ccc2cc(O)cc(N3CCc4c(nc(OC[C@@]56CCCN5C[C@H](F)C6)nc4NCCC(=O)n4ccc(C)n4)C3)c12
result: condition not met

query: Take the compound CCc1c(F)ccc2cc(O)cc(-c3ncc4c(N(CCCC(=O)n5ccc(C)n5)C5CC5)nc(OC[C@@]56CCCN5C[C@H](F)C6)nc4c3F)c12 and say whether its IC50 is less than 900 nM.
result: condition met

query: Determine if CCc1c(F)ccc2cc(O)cc(-c3ncc4c(N5C[C@H]6C[C@@H](C(=O)n7ccc(C)n7)[C@H]6C5)nc(OC[C@@]56CCCN5C[C@H](F)C6)nc4c3F)c12 shows IC50 strictly lower than 900 nM.
result: condition not met

query: Hello, is IC50 of the following compound strictly smaller than 900 nM? Cc1ccn(C(=O)C2CCCN(c3nc(OC[C@@]45CCCN4C/C(=C\F)C5)nc4c(F)c(-c5ccc(F)c6sc(N)c(C#N)c56)c(Cl)cc34)CC2)n1 (stereo partly shown)
result: condition met

query: Report whether reported IC50 is lower than 900 nM (strictly) for CCc1c(F)ccc2cc(O)cc(-c3ncc4c(N(C)C(C)CCC(=O)N(C)C(C)=O)nc(OC[C@@]56CCCN5C[C@H](F)C6)nc4c3F)c12 (stereo partly shown)
result: condition not met

query: # strict comparison: is reported IC50 < 900 nM? input = Cc1ccn(C(=O)CCCN(C)c2nc(OC[C@@]34CCCN3C[C@H](F)C4)nc3c(F)c(-c4ccc(F)c5sc(N)c(C#N)c45)c(Cl)cc23)n1
result: condition met
